# method summary: Plasma clearance in mouse at 10 mg/kg, iv
# Type: ADME, organism-based
# Design: dose 10 mg/kg, route intravenous
readout: clearance (mL/min/kg)

> print(dat)
                                   compound  experimental.result
1  CC(C(=O)N[C@H]1C2CC3CC1C[C@](O)(C3)C2)N1CCc2ccc3c(c2CC1)OCO3 (stereo partly drawn)                  155
2  CC(C(=O)N[C@H]1C2CC3CC1C[C@](O)(C3)C2)N1CC(Oc2ccccc2F)C1 (stereo partly drawn)                  120
3  CC(C(=O)N[C@H]1C2CC3CC1C[C@](O)(C3)C2)N1CCN(c2ccc(C(F)(F)F)cn2)CC1 (mixture of isomers)                   55

* * *

Reported clearance values for the following compounds.
# method summary: Plasma clearance in rat at 5 mg/kg, iv
# Type: ADME, organism-based
# Parameters: dose 5 mg/kg, route intravenous
readout: clearance (mL/min/kg)

> print(dat)
                                   compound    readout  unit.label  experimental.result
1  CC(C(=O)N[C@H]1C2CC3CC1C[C@](O)(C3)C2)N1CCN(c2ccc(C(F)(F)F)cn2)CC1 (mixture of isomers)  clearance   mL/min/kg                 33.3
2  O=C(CN1CCN(c2ccc(C(F)(F)F)cn2)CC1)N[C@H]1C2CC3CC1C[C@](O)(C3)C2  clearance   mL/min/kg                 23.3

* * *

# method summary: Half life in rat at 5 mg/kg, iv
# Format: ADME, organism-based
# Design: dose 5 mg/kg, route intravenous
# conditions used: in vivo
readout: half-life (h)

> print(dat)
                                   compound  experimental.result
1  CC(C(=O)N[C@H]1C2CC3CC1C[C@](O)(C3)C2)N1CCN(c2ccc(C(F)(F)F)cn2)CC1 (mixture of isomers)                    1
2  O=C(CN1CCN(c2ccc(C(F)(F)F)cn2)CC1)N[C@H]1C2CC3CC1C[C@](O)(C3)C2                  1.4

* * *

# experimental target: UniProtKB P50172
# Sequence (P50172 whole entry): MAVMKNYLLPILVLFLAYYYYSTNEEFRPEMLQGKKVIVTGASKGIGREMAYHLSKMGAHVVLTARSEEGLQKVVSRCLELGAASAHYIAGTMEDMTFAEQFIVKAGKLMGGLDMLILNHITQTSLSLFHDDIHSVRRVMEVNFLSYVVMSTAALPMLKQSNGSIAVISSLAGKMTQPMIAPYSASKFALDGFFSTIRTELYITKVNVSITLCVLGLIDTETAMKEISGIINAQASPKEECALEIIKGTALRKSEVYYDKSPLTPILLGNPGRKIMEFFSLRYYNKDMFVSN
pKi: −log10 of the molar value.
Note to self: values exactly at 7 are Condition met. So pKi at or above 7 is Condition met, below is Condition not met.

> print(dat)
                                   compound  experimental.target     assigned.class
1  CC(C(=O)N[C@H]1C2C[C@]3(O)CC1C[C@](F)(C2)C3)N1CCN(c2ccc(C(F)(F)F)cn2)CC1 (mixture of isomers)     UniProtKB P50172  Condition not met
2  O=C(CN1CCN(c2ccc(Cl)cc2)CC1)NC1C2CC3CC(C2)CC1C3 (configuration not stated)     UniProtKB P50172      Condition met
3  O=C(CN1CCN(c2ccc(C(F)(F)F)cn2)CC1)NC1C2CC3CC(C2)CC1C3 (configuration not stated)     UniProtKB P50172      Condition met
4  CC(C(=O)N[C@H]1C2C[C@@]3(O)CC1C[C@@](O)(C2)C3)N1CCN(c2ccc(C(F)(F)F)cn2)CC1 (mixture of isomers)     UniProtKB P50172  Condition not met
5  C[C@H](C(=O)N[C@H]1C2CC3CC1C[C@](O)(C3)C2)N1CC[C@@H](F)C1     UniProtKB P50172      Condition met
6  CC(C(=O)N[C@H]1C2CC3CC1C[C@](O)(C3)C2)N1CC(Oc2ccccc2F)C1 (some centres not stated)     UniProtKB P50172      Condition met

Data origin, for the record: ChEMBL document CHEMBL1139224
